Target: T1, G4 Resolvase 1 (G4R1) (UniProt Q9H2U1 1-1008)
T1 sequence: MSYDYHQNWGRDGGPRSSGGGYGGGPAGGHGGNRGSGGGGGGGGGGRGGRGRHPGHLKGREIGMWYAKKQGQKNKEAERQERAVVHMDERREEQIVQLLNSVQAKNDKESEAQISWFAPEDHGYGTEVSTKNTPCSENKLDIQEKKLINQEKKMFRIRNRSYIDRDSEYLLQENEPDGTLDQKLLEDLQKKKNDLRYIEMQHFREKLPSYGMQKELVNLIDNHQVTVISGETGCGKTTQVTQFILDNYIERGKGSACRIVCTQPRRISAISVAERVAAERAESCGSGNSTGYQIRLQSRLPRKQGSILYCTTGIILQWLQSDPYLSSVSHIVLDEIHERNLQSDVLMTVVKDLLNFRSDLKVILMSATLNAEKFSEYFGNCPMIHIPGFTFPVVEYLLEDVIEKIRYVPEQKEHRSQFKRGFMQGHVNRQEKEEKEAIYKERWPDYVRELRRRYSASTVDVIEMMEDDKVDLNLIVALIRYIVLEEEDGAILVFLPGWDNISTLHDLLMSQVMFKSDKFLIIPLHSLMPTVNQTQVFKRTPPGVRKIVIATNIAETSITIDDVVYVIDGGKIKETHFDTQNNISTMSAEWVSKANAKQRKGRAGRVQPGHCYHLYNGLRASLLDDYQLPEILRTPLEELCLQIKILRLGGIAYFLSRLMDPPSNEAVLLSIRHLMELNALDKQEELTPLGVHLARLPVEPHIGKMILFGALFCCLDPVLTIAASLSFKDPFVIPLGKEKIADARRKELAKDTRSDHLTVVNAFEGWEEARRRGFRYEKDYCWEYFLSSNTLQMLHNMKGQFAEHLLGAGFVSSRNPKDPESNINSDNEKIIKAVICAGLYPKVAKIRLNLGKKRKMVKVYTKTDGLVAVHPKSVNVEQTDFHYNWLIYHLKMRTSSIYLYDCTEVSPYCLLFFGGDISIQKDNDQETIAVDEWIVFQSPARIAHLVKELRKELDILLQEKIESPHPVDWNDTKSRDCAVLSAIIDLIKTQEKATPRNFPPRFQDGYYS
Assay: EMSA; 50 mM KCl, K+-induced 3+1 G4, 24 h; apparent Kd, n=3; 50 mM KCl, 10 mM NaCl (or 50 mM KCl or 50 mM NaCl alone), 3 mM MgCl2, 50 mM Tris acetate pH 7.8, 70 mM glycine, 0.012% bovine lactalbumin, 10% glycerol, 10 mM EDTA; 37 C, 0.5 or 24 h; 1 pM DNA, 10-500 pM G4R1; gel at 7 C
Details: protein: recombinant; label: 5'-32P; unimolecular G4; 3+1 in K+, 2+2 basket in Na+
pKd: −log10 of the molar value.

{"columns": ["binder", "pKd"],
 "data": [
  ["TTAGGGTTAGGGTTAGGGTTAGGGTTAGGGTTA (structured_DNA) [Tel33]", 11.00]
]}
